Below is a list of entries, each paired with its recorded self-cleavage value.
B1: LINE1-full (parent)
chain: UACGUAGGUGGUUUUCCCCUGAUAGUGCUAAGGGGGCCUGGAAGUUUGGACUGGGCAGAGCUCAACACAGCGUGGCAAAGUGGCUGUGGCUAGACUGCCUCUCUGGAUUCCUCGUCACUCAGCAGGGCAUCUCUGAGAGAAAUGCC

# Variants of: B1
# experimental.protocol: self-cleavage, relative activity (ratio to wild type); higher = more cleavage; in vitro, sequencing; the parent is a self-cleaving ribozyme
Write the number on its own, no unit after it.

Examples with answers:
{"columns": ["variant", "test.result"],
 "data": [
  ["U12C U112C", 1.26],
  ["U47C A129G", 1.49]
]}

Could you now consider this next variant?
# variant G49U U119C ; its self-cleavage = 1.2
